Origin of values: PubChem BioAssay

# protocolText: HUVEC growth inhibition – cell-based, human, primary screen (AID 575);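 also: 100% = median of untreated cell wells with 0.1% DMSO on each plate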
# conditionSummary: HUVEC proliferation, CellTiter-Glo luminescence, 72 h; at 10 µM; stronger effect = lower value
resultType: viability (%)
Please reply with the bare figure in % and do not write the unit itself.

- compound: "CCOc1ccc(N(C(C)=O)C2C=CS(=O)(=O)C2)cc1 (stereo unspecified)"
  viability (%): 95.7
- compound: "COc1cccc(NC(=O)N2CCN(C(=O)C(Cc3ccc(OC)c(OC)c3)NC(C)=O)CC2)c1 (stereo unspecified)"
  viability (%): 91.1
- compound: "CCCCn1c(NCCC)nc2c1c(=O)[nH]c(=O)n2C"
  viability (%): 113
- compound: "CC(C)CCNC(=O)C1CCN(C(=O)N(C)C)CC1"
  viability (%): 108
- compound: "CCOc1ccc(NC(=O)CN(C)S(=O)(=O)c2cccs2)cc1"
  viability (%): 101

Input line: Please report the recorded viability for COCCn1nnnc1C(C(C)C)N1CCN(C(=O)c2ccco2)CC1 (stereo unspecified) .
Output line: 99.2

###

Documented differential viability (reversal) across a set of molecules
# protocolText: reversal of MRP1-mediated doxorubicin resistance, pilot screen, H69AR cells, doxorubicin co-treatment (AID 601)
# conditionSummary: H69AR cells + 2 uM doxorubicin, CellTiter-Glo, 72 h; at 10 µM; stronger effect = higher value
Please reply with the bare figure in % and do not write the unit itself.

Please review the entries below; each comes with its answer.
- molecule: "O=C(O)CCc1ccc(-c2cccs2)o1"
  endpointUnit: "%"
  differential viability (reversal): 4.25
- molecule: "O=C(Nc1ccc(Cl)cc1C(=O)Nc1ccncc1)c1ccco1"
  endpointUnit: "%"
  differential viability (reversal): -19.2
- molecule: "COc1ccccc1NC(=O)c1ccc(COc2ccccc2OC)o1"
  endpointUnit: "%"
  differential viability (reversal): 5.99

Input line: Please report the recorded differential viability (reversal) for CC(=O)Nc1ccccc1-c1nc2ccc(C(=O)N3CCN(c4ccccc4)CC3)cc2[nH]c1=O .
Output line: -1.66

Input line: What do you have for Cc1oc(-c2ccc(Cl)cc2)nc1CS(=O)CC(=O)NCCCN(C)C1CCCCC1 (stereo unspecified) ?
Output line: 10.8

Input line: What do you have for Cc1cnc(SCCc2ccncc2)nc1C ?
Output line: 9.61

###

# protocolText: reversal of MRP1-mediated doxorubicin resistance, pilot screen, H69AR cells, doxorubicin co-treatment (AID 601)
# conditionSummary: H69AR cells, CellTiter-Glo, 72 h; compound alone cytotoxicity; at 10 µM
Field 'label' (enum: Met / Not met). Set to Met when viability is strictly under 90%; else Not met.

A selection of reference data follows.
- compound: "COc1ccccc1CNC(=O)CCNC(=O)Cn1ccc2ccccc2c1=O"
  labelClass: "Not met"
- compound: "O=C(Nc1ccccc1C(=O)NCC1CCCO1)c1ccco1 (stereo not drawn)"
  labelClass: "Not met"
- compound: "CCOc1ccccc1N1CCN(c2nc(N)c(C#N)c(CC#N)c2C#N)CC1"
  labelClass: "Met"

Could you now look at the following compound, please?
Input line: Please let me know if CCN1C(=O)/C(=C2\C=Cc3ccccc3N2CC)OC1=S shows viability below 90%.
Output line: Met

###

# protocolText: reversal of MRP1-mediated doxorubicin resistance, pilot screen, H69AR cells, doxorubicin co-treatment (AID 601)
# conditionSummary: H69AR cells, CellTiter-Glo, 72 h; compound alone cytotoxicity; at 10 µM
Documented viability across a set of molecules
Please reply with the bare figure in % and do not write the unit itself.

- molecule: "COC(=O)c1ccccc1NC(=O)C1CC(=O)N(c2ccccc2)C1 (stereo unspecified)"
  viability, %: 102
- molecule: "Cc1cnc(C(=O)Nc2ccc(-n3cnnn3)cc2)cn1"
  viability, %: 105
- molecule: "COc1ccc(-c2nc(C#N)c(N3CCOCC3)o2)cc1OC"
  viability, %: 84.5
- molecule: "O=C(Nc1ccc2c(c1)nc1n2CCSC1)c1ccccc1"
  viability, %: 92.7
- molecule: "Cc1oc2cc(O)ccc2c(=O)c1-c1cnn(-c2ccccc2)c1"
  viability, %: 96.5
- molecule: "Cc1nnc2ccc(N3CCN(c4cccc(C(F)(F)F)c4)CC3)nn12"
  viability, %: 80.3
- molecule: "Cc1c(NC(=O)C(C)OC(=O)C(NC(=O)c2ccco2)C(C)C)c(=O)n(-c2ccccc2)n1C (stereo unspecified)"
  viability, %: 91.5
- molecule: "N#Cc1c(NC(=O)c2ccc(Br)o2)n(-c2ccccc2)c2nc3ccccc3nc12"
  viability, %: 85.2

Input line: Please report the recorded viability for Cc1cccc2sc(NC(=O)Cn3cccc3)nc12 .
Output line: 89.6

Input line: What do you have for COC(=O)c1cccc(S(=O)(=O)N2CCN(c3nc4ccccc4s3)CC2)c1 ?
Output line: 81

Input line: What do you have for O=S(=O)(NCC1CCCO1)c1cccc(C(F)(F)F)c1 (stereo unspecified) ?
Output line: 95.1
